tested on: OV90; assay: Primary qHTS to identify gynecologic anti-cancer compounds using libraries of approved drugs and bioactive compounds (AID 1345084); settings: Gynecologic cancer cell panel viability, ATPlite luminescence, 48 h; series mostly up to 57.5 µM; further: nearly all actives have a fitted effect of over 55% in size; further: potency means the concentration at half of the fitted maximal effect
Inconclusive results are not listed. Active and inactive are the calls of the source. The call rests on the fitted dose curve; in most records, active means well fitted cell-killing curve with a large enough effect; inconclusive means small, poorly fitted or top-dose-only effect, or effect the other way; inactive means flat fitted curve, though single readings scatter.
endpoint: Potency

Worked cases, Potency given:
>>> recorded_measurement("C=Cc1cc2oc(-c3ccc(O)c(F)c3)nc2cc1O")
"25.1 µM (active)"
>>> recorded_measurement("CC(C)C[C@H](NC(=O)[C@@H]1O[C@H]1C(=O)O)C(=O)NCCCCN=C(N)N")
"28.2 µM (active)"
>>> recorded_measurement("CC(CNS(=O)(=O)C(C)C)c1ccc(-c2ccc(C#N)cc2)cc1 (centres undefined)")
"10 µM (active)"

Which Potency value is on record for COc1ccc(-c2ccn(CC[C@](C)(C(=O)NO)S(C)(=O)=O)c(=O)c2)c(F)c1 ?
15.8 µM (active)

----------
system: Es-2; assay: Primary qHTS to identify gynecologic anti-cancer compounds using libraries of approved drugs and bioactive compounds (AID 1345084); details: Gynecologic cancer cell panel viability, ATPlite luminescence, 48 h; series mostly up to 57.5 µM; further: nearly all actives have a fitted effect of over 55% in size; on activity change, negative = cytotoxicity: on the % scale 0 is the no-effect control and ±100 the full control effect
Results filed as inconclusive are left out. Active and inactive are the calls of the source. Calls follow the shape of the dose curve; as a rule, active = well fitted cell-killing curve with a large enough effect; inconclusive = small, poorly fitted or top-dose-only effect, or effect the other way; inactive = flat fitted curve, though single readings scatter.
endpoint: activity change, negative = cytotoxicity

Worked cases, activity change, negative = cytotoxicity given:
>>> recorded_measurement("C[C@H]1[C@H](C)CC[C@]2(C(=O)O)CC[C@]3(C(=O)O)C(=CCC4[C@@]5(C)CC[C@H](O[C@@H]6O[C@@H](C)[C@H](O)[C@@H](O)[C@H]6O)C(C)(C)C5CC[C@]43C)[C@H]12 (stereo partly drawn)")
"inactive"
>>> recorded_measurement("Cc1ccc(C)c(NC(=O)CNS(=O)(=O)c2ccc3[nH]c(=O)oc3c2)c1")
"inactive"
>>> recorded_measurement("CCC(C)/C=C(C)/C=C/C1=CC2=C(Cl)C(=O)C(C)(OC(C)=O)C(=O)C2=CN1C(CCC(=O)O)C(=O)O (stereo not drawn)")
"inactive"
>>> recorded_measurement("C[C@H]1CC(=O)C2=C(C1)C(O)C(O)[C@@]1(O)[C@H]2C(=O)c2cccc(O)c2[C@@H]1O (stereo partly drawn)")
"inactive"
>>> recorded_measurement("CC1OC(O[C@@H]2[C@@H](O)[C@H](OC(=O)[C@]34CCC(C)(C)C[C@H]3C3=CCC5[C@@]6(C)CC[C@H](O[C@@H]7O[C@H](C(=O)O)[C@@H](O)[C@H](O[C@@H]8OC[C@@H](O)[C@H](O)[C@H]8O)[C@H]7O[C@@H]7O[C@H](CO)[C@H](O)[C@H](O)[C@H]7O)[C@@](C)(C=O)C6CC[C@@]5(C)[C@]3(C)C[C@H]4O)O[C@H](C)[C@@H]2OC2OC(C)C(OC3OCC(O)C(O)C3O)C(O)C2O)C(O)C(O)C1O (stereo partly drawn)")
"-0.176% [at 6.55 µM] (inactive)"
>>> recorded_measurement("CC/C=C/C=C/C1(C)OC(CC(CO)OC)=CC1=O (stereo not drawn)")
"inactive"

Which activity change, negative = cytotoxicity value is on record for COc1cc(/C=C/CO[C@@H]2O[C@H](CO)[C@@H](O)[C@H](O)[C@H]2O)cc(OC)c1O[C@@H]1O[C@H](CO)[C@@H](O)[C@H](O)[C@H]1O ?
inactive

Which activity change, negative = cytotoxicity value is on record for CC(=O)OCC1=C[C@@H]2OC(=O)C3=CO[C@@H](O[C@@H]4O[C@H](CO)[C@@H](O)[C@H](O)[C@H]4O)[C@H]1[C@@H]32 ?
inactive

Which activity change, negative = cytotoxicity value is on record for COc1cc(C)c(C(=O)NC2C(C)OC(OC3CCC(C)C4C3C=C(C)C3/C(C)=C\CC/C(C)=C/C5(C)C=C(C(=O)O)C(C)CC56OC(=O)/C(=C(\O)C34C)C6=O)C(O)C2(C)O)c(O)c1 (stereo not drawn) ?
-2.46% [at 11.6 µM] (inactive)

Hey, just so you know, these numbers are from PubChem BioAssay (NCATS).
